Tested on: L1210 leukemia ip in BDF1 mice, survival T/C
Experiment: NCI In Vivo Anticancer Drug Screen. Data for tumor model L1210 Leukemia (intraperitoneal) in B6D2F1 (BDF1) mice
Details: endpoint: mean survival time; dose: 200.0 mg/kg/injection; schedule: Q04DX003 (ip); vehicle: other; higher = longer survival
Inconclusive results and toxic doses are left out.

compound: CCCCCCCCCCCSSCCCCCCCCCCC
testedOn: L1210 leukemia ip in BDF1 mice, survival T/C
T/C: 96 % of control
--
compound: CC(C)(O)c1cnc(OCc2ccccc2)nc1OCc1ccccc1
testedOn: L1210 leukemia ip in BDF1 mice, survival T/C
T/C: 106 % of control
--
compound: COc1ccc(Cc2ccc(O)cc2)cc1
testedOn: L1210 leukemia ip in BDF1 mice, survival T/C
T/C: 93 % of control
--
compound: O=C(OC1c2cccc3cccc(c23)C1O)c1ccccc1 (stereo unspecified)
testedOn: L1210 leukemia ip in BDF1 mice, survival T/C
T/C: 93 % of control
--
compound: CCOC(=O)CSCCC1CC(=O)N1 (stereo unspecified)
testedOn: L1210 leukemia ip in BDF1 mice, survival T/C
T/C: 104 % of control
--
compound: COC(=O)/C=C/Nc1ccccc1
testedOn: L1210 leukemia ip in BDF1 mice, survival T/C
T/C: 98 % of control
